z-score of subpopulation abundance by entry:
system: Saccharomyces cerevisiae BY4741 SeMeCo community; assay: z-score of subpopulation abundance vs DMSO median, subpopulation auxotrophic for HL; higher = larger share of this subpopulation than in DMSO controls; conditions: 10 µM; 24 h; SM minimal medium; subpopulation (auxotrophy): HL
ASSAY_READOUT: z-score of subpopulation abundance

In [3]: df
Out[3]:
                                   molecule                       assay_readout  result_value
0  C=CCN1C[C@H](C(=O)N(CCCN(C)C)C(=O)NCC)C[C@@H]2c3cccc4[nH]cc(c34)C[C@H]21  z-score of subpopulation abundance         -0.49
1  CN1c2ccccc2C(NCCCCCCC(=O)O)c2ccc(Cl)cc2S1(=O)=O (centres undefined) [Tianeptine sodium]  z-score of subpopulation abundance         -0.07
2                   O=[N+]([O-])C(Br)(CO)CO  z-score of subpopulation abundance         -1.08
3  C[C@@H]1CC[C@H]2[C@@H](C)C(=O)O[C@@H]3O[C@@]4(C)CC[C@@H]1[C@]32OO4  z-score of subpopulation abundance         -0.27

* * *

test system: Saccharomyces cerevisiae BY4741 SeMeCo community; assay: z-score of subpopulation abundance vs DMSO median, subpopulation auxotrophic for HLU; higher = larger share of this subpopulation than in DMSO controls; conditions: 10 µM; 24 h; SM minimal medium; subpopulation (auxotrophy): HLU
Where a name gives a salt, the structure may show the parent alone.
Decide by z-score of subpopulation abundance: equal to or exceeding -0.4 means satisfied, less means not satisfied.

>>> df
                                   molecule          label
0  O=c1[nH]c2ccccc2n1CCCN1CCC(n2c(=O)[nH]c3cc(Cl)ccc32)CC1      satisfied
1  COc1cc2c(cc1OC)C1CC(=O)C(CC(C)C)CN1CC2 (centres undefined)      satisfied
2  CN1c2ccccc2C(NCCCCCCC(=O)O)c2ccc(Cl)cc2S1(=O)=O (centres undefined) [Tianeptine sodium]      satisfied
3  CN1C(=O)COc2c(C(=O)NC3CN4CCC3CC4)cc(Cl)cc21 (centres undefined) [Azasetron HCl]  not satisfied
4                       COC(=O)C1=CCCN(C)C1      satisfied
5  C[N+](C)(C)CCCCCCCCCC[N+](C)(C)C [Decamethonium Bromide]      satisfied
6  O=C(O[C@H]1C[N+]2(CCCOc3ccccc3)CCC1CC2)C(O)(c1cccs1)c1cccs1 [Aclidinium Bromide]  not satisfied
7  CN(C)C(=O)Oc1ccc[n+](C)c1 [Pyridostigmine Bromide]  not satisfied

* * *

z-score of subpopulation abundance by entry:
system: Saccharomyces cerevisiae BY4741 SeMeCo community; assay: z-score of subpopulation abundance vs DMSO median, subpopulation auxotrophic for UM; higher = larger share of this subpopulation than in DMSO controls; settings: 10 µM; 24 h; SM minimal medium; subpopulation (auxotrophy): UM
ASSAY_READOUT: z-score of subpopulation abundance

MOLECULE	ASSAY_READOUT	RESULT_VALUE
CCC1=C[C@H]2CN3CCc4c([nH]c5ccccc45)[C@](C(=O)OC)(C2)[C@H]13	z-score of subpopulation abundance	0.1
CC[C@@]1(O)C(=O)OCc2c1cc1n(c2=O)Cc2cc3ccccc3nc2-1	z-score of subpopulation abundance	0.1
CC(=O)O[C@H]1C[C@@H]2CC[C@@H]3[C@H](CC[C@@]4(C)[C@H]3C[C@H]([N+]3(C)CCCCC3)[C@@H]4OC(C)=O)[C@@]2(C)C[C@@H]1[N+]1(C)CCCCC1 [Pancuronium dibromide]	z-score of subpopulation abundance	-0.06
O=[N+]([O-])C(Br)(CO)CO	z-score of subpopulation abundance	-0.1

* * *

test system: Saccharomyces cerevisiae BY4741 SeMeCo community; test: z-score of subpopulation abundance vs DMSO median, subpopulation auxotrophic for UM; higher = larger share of this subpopulation than in DMSO controls; conditions: 10 µM; 24 h; SM minimal medium; subpopulation (auxotrophy): UM
Structures can show the parent of a compound that is named as a salt.
ASSAY_READOUT: z-score of subpopulation abundance

>>> print(df.to_string())
                                   compound  result_value
0  O=C(O[C@H]1C[N+]2(CCCOc3ccccc3)CCC1CC2)C(O)(c1cccs1)c1cccs1 [Aclidinium Bromide]          0.73
1  C#C[C@]1(O)C=C[C@H]2[C@@H]3CCC4=CC(=O)CC[C@@H]4[C@H]3CC[C@@]21CC         -1.14
2  C[N+]12CCC(CC1)C(OC(=O)C(O)(c1ccccc1)c1ccccc1)C2 (centres undefined) [Clidinium Bromide]         -0.38
3  NCC(O)c1ccc(O)cc1 (racemic) [(+,-)-Octopamine HCl]         -0.79

* * *

test system: Saccharomyces cerevisiae BY4741 SeMeCo community; assay: mean cell size (pixel area) (pixels); higher = larger cells; settings: 10 µM; 24 h; SM minimal medium
mean cell size by entry:
ASSAY_READOUT: mean cell size

In [3]: df
Out[3]:
                               given_smiles                       experimental_system   assay_readout  result_value
0  O=c1[nH]c2ccccc2n1CCCN1CCC(n2c(=O)[nH]c3cc(Cl)ccc32)CC1  Saccharomyces cerevisiae BY4741 SeMeCo community  mean cell size          12.6
1  CN1[C@@H]2CC[C@H]1C[C@@H](OC(=O)[C@H](CO)c1ccccc1)C2  Saccharomyces cerevisiae BY4741 SeMeCo community  mean cell size          12.3
2                           COc1ccc(C=O)cc1  Saccharomyces cerevisiae BY4741 SeMeCo community  mean cell size          12.3
3  CN1[C@@H]2C[C@@H](OC(=O)[C@H](CO)c3ccccc3)C[C@H]1[C@@H]1O[C@@H]12  Saccharomyces cerevisiae BY4741 SeMeCo community  mean cell size          12.5

* * *

tested on: Saccharomyces cerevisiae BY4741 SeMeCo community; experiment: z-score of subpopulation abundance vs DMSO median, subpopulation auxotrophic for LM; higher = larger share of this subpopulation than in DMSO controls; conditions: 10 µM; 24 h; SM minimal medium; subpopulation (auxotrophy): LM
Where a name gives a salt, the structure may show the parent alone.
z-score of subpopulation abundance by entry:

MOLECULE	z-score of subpopulation abundance
CN1[C@@H]2CC[C@H]1C[C@@H](OC(=O)[C@H](CO)c1ccccc1)C2 [Hyoscyamine]	-0.17
CCCN1C[C@H](CSC)C[C@@H]2c3cccc4[nH]cc(c34)C[C@H]21 [Pergolide Mesylate]	-0.22
COc1cc2c(cc1OC)C1CC(=O)C(CC(C)C)CN1CC2 (configuration not stated) [Tetrabenazine (Xenazine)]	0.75
COc1ccc2c(c1)[C@]13CCCC[C@@H]1[C@H](C2)N(C)CC3 [Dextromethorphan hydrobromide hydrate]	-0.18
CN1[C@@H]2CC[C@H]1C[C@@H](OC(=O)C(CO)c1ccccc1)C2 (some centres not stated) [Atropine sulfate monohydrate]	-0.12
Nc1nc(N)nc(NC2CC2)n1 [Cyromazine]	0.84
CC[C@@]1(O)C(=O)OCc2c1cc1n(c2=O)Cc2cc3ccccc3nc2-1 [Camptothecin]	-0.25
CCOC(=O)Nc1ccc(NCc2ccc(F)cc2)cc1N [Retigabine]	-0.12
C[CH2][Hg][S]c1ccccc1C(=O)[O-].[Na+] [Thimerosal]	13.9
O=c1[nH]c2ccccc2n1CCCN1CCC(n2c(=O)[nH]c3cc(Cl)ccc32)CC1 [Domperidone]	-0.04
C=CN1CCCC1=O.II [Povidone iodine]	-0.46
C[N+](C)(C)CCCCCCCCCC[N+](C)(C)C [Decamethonium Bromide]	-0.15
C[N+]12CCC(CC1)C(OC(=O)C(O)(c1ccccc1)c1ccccc1)C2 (configuration not stated) [Clidinium Bromide]	-0.72
CC(NC(C)(C)C)C(=O)c1cccc(Cl)c1 (configuration not stated) [Amfebutamone (Bupropion) HCl]	-0.59
CCOC(=O)Nc1ccc(NCc2ccc(F)cc2)cc1N [Retigabine 2HCl]	0.17
CCN(C)C(=O)Oc1cccc([C@H](C)N(C)C)c1 [Rivastigmine Tartrate]	0
C[C@@H]1O[C@@H](O[C@H]2C[C@@H](O)[C@]3(CO)[C@H]4[C@H](O)C[C@]5(C)[C@@H](C6=CC(=O)OC6)CC[C@]5(O)[C@@H]4CC[C@]3(O)C2)[C@H](O)[C@H](O)[C@H]1O [Ouabain]	-0.83
O=C(O[C@H]1C[C@H]2CC[C@@H](C1)[N+]21CCCC1)C(O)(c1ccccc1)c1ccccc1 [Trospium chloride]	-0.54
C[C@@H]1CC[C@H]2[C@@H](C)C(=O)O[C@@H]3O[C@@]4(C)CC[C@@H]1[C@]32OO4 [Artemisinin]	-1.74
CN[C@@H]1[C@@H](O)[C@@H](O[C@@H]2[C@@H](O)[C@H](O[C@H]3O[C@H](CN)CC[C@H]3N)[C@@H](N)C[C@H]2N)OC[C@]1(C)O.CN[C@@H]1[C@@H](O)[C@@H](O[C@@H]2[C@@H](O)[C@H](O[C@H]3O[C@H]([C@@H](C)N)CC[C@H]3N)[C@@H](N)C[C@H]2N)OC[C@]1(C)O.CN[C@@H]1[C@@H](O)[C@@H](O[C@@H]2[C@@H](O)[C@H](O[C@H]3O[C@H]([C@@H](C)NC)CC[C@H]3N)[C@@H](N)C[C@H]2N)OC[C@]1(C)O [Gentamicin Sulfate]	-0.12
CC(C)=CCOc1c2occc2cc2ccc(=O)oc12 [Imperatorin]	0
CN(C)C(=O)Oc1cccc([N+](C)(C)C)c1 [Neostigmine Bromide]	0.26
Oc1cc(Cl)ccc1Oc1ccc(Cl)cc1Cl [Triclosan]	-2.25
CC(=O)OCC1=C(C(=O)O)N2C(=O)C(N)C2SC1 (configuration not stated) [7-Aminocephalosporanic acid]	-0.28
CN1[C@@H]2C[C@@H](OC(=O)[C@H](CO)c3ccccc3)C[C@H]1[C@@H]1O[C@@H]12 [Scopolamine HBr]	-0.51
C=CCN1C[C@H](C(=O)N(CCCN(C)C)C(=O)NCC)C[C@@H]2c3cccc4[nH]cc(c34)C[C@H]21 [Cabergoline]	-0.31
NC(=O)CN1CCCC1=O [Piracetam]	1.96
